Experiment: Systemic clearance in dog at 2 mg/kg, iv
Assay type: ADME, organism-based, Canis lupus familiaris
Conditions: in vivo
readout_label: clearance

Query block: Given the compound OC[C@H]1O[C@@H](c2ccc(Cl)c(Cc3ccc4c(c3)CC4)c2)[C@H](O)[C@@H](O)[C@@H]1O , what is its reported clearance?
Result block: 0.68 mL/min/kg

----------
Experiment: AUC (infinity) in rat at 2 mg/kg, iv
Type: ADME, organism-based
Design: dose 2 mg/kg, time infinity, route intravenous
Conditions: in vivo
Provide the reported AUC(0-inf) of each item.
Write it as a number; the unit ng·h/mL goes unstated.

Query block: Need AUC(0-inf), item Cc1cc(O)c([C@@H]2O[C@H](CO)[C@@H](O)[C@H](O)[C@H]2O)cc1Cc1ccc2c(c1)CC2
Result block: 697

Query block: // query: OC[C@H]1O[C@@H](c2ccc(Cl)c(Cc3ccc4c(c3)CC4)c2)[C@H](O)[C@@H](O)[C@@H]1O
Result block: 697
